systemTested: HLA-A*23:01
assayProtocol: IEDB peptide-MHC binding, purified MHC/competitive/radioactivity; filed as Kd, often an IC50 or EC50 that approximates it; bounds were set here for any values at or beyond the usual limits of such assays
details: source organism: Dengue virus 4 Dominica/814669/1981
pKd: −log10 of the molar value.
endpoint: pKd

[
  {
    "residueCodes": "CLIPTVMAF",
    "systemTested": "HLA-A*23:01",
    "endpointValue": 7.09
  }
]

====

systemTested: HLA-C*03:03
assayProtocol: IEDB peptide-MHC binding, purified MHC/direct/fluorescence; filed as Kd, often an IC50 or EC50 that approximates it; bounds were set here for any values at or beyond the usual limits of such assays
details: source organism: Vaccinia virus Copenhagen

[
  {
    "residueCodes": "RVYEALYYV",
    "Kd [nM]": 1240
  }
]
